B1: CDKN1A (parent)
chain: RRQTSMTDFYHSKRRLIFSKRKP

Variants of: B1
EXPERIMENT_SUMMARY: protein stability index of a GFP-peptide fusion (GPS, HEK-293T) (PSI 1-6); higher = more stable;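 also: lentivirally expressed fusions sorted by FACS into six bins by GFP to DsRed ratio, PSI derived from sequencing read proportions per bin multiplied by bin number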
SETTINGS: c terminus: native
Each entry below carries its recorded protein stability index.
Answer field: number only, no words.

Fill blank: measured protein stability index of the variant R14W is ____.
3.61

Fill blank: measured protein stability index of the variant L16Q is ____.
2.53

Fill blank: measured protein stability index of the variant R15I is ____.
3

Fill blank: measured protein stability index of the variant K13I is ____.
2.36

Fill blank: measured protein stability index of the variant H11V is ____.
1.43

Fill blank: measured protein stability index of the variant F18P is ____.
2.82

Fill blank: measured protein stability index of the variant S19M is ____.
2.96

Fill blank: measured protein stability index of the variant S19P is ____.
2.08

Fill blank: measured protein stability index of the variant T7F is ____.
2.06

Fill blank: measured protein stability index of the variant R1W is ____.
2.69

Fill blank: measured protein stability index of the variant R14C is ____.
2.69

Fill blank: measured protein stability index of the variant I17S is ____.
2.99

Fill blank: measured protein stability index of the variant L16K is ____.
2.21

Fill blank: measured protein stability index of the variant L16M is ____.
1.54

Fill blank: measured protein stability index of the variant S19N is ____.
1.85

Fill blank: measured protein stability index of the variant Y10K is ____.
1.57
